Recorded values, source paper PMC4964386.

The entries below come with measured IC50 values attached.
# Tested on: human U87 glioblastoma
# PROCEDURE SUMMARY: MTT cell proliferation assay, U87
# Format: cell-based
# CONDITION CONTEXT: U87, 72 h treatment, read-out: IC50 (concentration inducing 50% cell survival inhibition)
ENDPOINT LABEL: IC50 (µM)

[[record]]
molecule = "O=C1[O][Pt-2]2([NH2+]C3CCCC[C@H]3[NH2+]2)[O]C1=O (stereo in doubt)"
endpoint_label = "IC50"
units_text = "µM"
endpoint_result = 3.1

[[record]]
molecule = "CCCN(CCC)C(=O)Cc1c(-c2ccc(OCC(=O)OCC[O][Pt]3([Cl])[O]C(=O)C(=O)[O]3)cc2)nc2c(Cl)cc(Cl)cn12.N[C@@H]1CCCC[C@H]1N"
endpoint_label = "IC50"
units_text = "µM"
endpoint_result = 16.1

[[record]]
molecule = "O=C1[O][Pt]2([Cl])([O]CCO)([NH]C3CCCCC3[NH]2)[O]C1=O (mixture of isomers)"
endpoint_label = "IC50"
units_text = "µM"
endpoint_result = 9.1

